protocolText: chemical genetic growth profiling, strain panel (AID 1159580);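 note: tested at 20 µM; growth read once vehicle control cultures reached saturation at 30 °C; 1 = growth at the plate median or of vehicle wells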
cond: S. cerevisiae deletion strains, growth OD, locus YAL030W, strain snc1, active compounds read low
Out of some 5,500 compounds screened, about 2,000 (36%) were called active. Roughly 18% stayed inconclusive and do not appear here. This is one part of the list.
endpointLabel: normalized growth
API note: the answer field is a bare number with no unit suffix.

In the examples that follow, each entry is paired with its recorded normalized growth.
compound="CC(CCC(=O)O)[C@H]1CCC2C3CC[C@@H]4C[C@H](O)CC[C@]4(C)C3C[C@H](O)[C@@]21C (some centres undefined)" endpointlabel="normalized growth" endpointresult=1.01
compound="C[C@H](CCC(=O)O)[C@H]1CCC2C3C(CC[C@@]21C)[C@@]1(C)CC[C@@H](O)C[C@H]1C[C@@H]3O (some centres undefined)" endpointlabel="normalized growth" endpointresult=0.983
compound="CC[C@H](CCC(C)[C@H]1CCC2C3CCC4C[C@@H](O)CC[C@]4(C)C3CC[C@@]21C)C(C)C (some centres undefined)" endpointlabel="normalized growth" endpointresult=0.985
compound="Cc1ncc([N+](=O)[O-])n1CC(C)O (centres undefined)" endpointlabel="normalized growth" endpointresult=0.975
compound="C=C1C(C2(C)C=CC(=O)C(C)(C)C2CC(=O)OC)CC[C@@]2(C)[C@H](c3ccoc3)OC(=O)C3OC132 (some centres undefined)" endpointlabel="normalized growth" endpointresult=0.996
compound="COC(=O)CCC(C)[C@H]1CCC2C3C(C[C@H](O)[C@@]21C)[C@@]1(C)CC[C@@H](O)C[C@H]1C[C@H]3O (some centres undefined)" endpointlabel="normalized growth" endpointresult=1.01

Value of normalized growth reported for the compound CC(CCC(=O)O)[C@H]1CCC2C3C(C[C@H](O)[C@@]21C)[C@@]1(C)CC[C@@H](O)C[C@H]1C[C@H]3O (some centres undefined) is 1.01

Value of normalized growth reported for the compound CC(C)CCCC(C)C1CCC2C3CC[C@H]4CCCC[C@]4(C)C3CC[C@]12C (some centres undefined) is 1.02

Value of normalized growth reported for the compound "O=C(O)CCC(=O)Nc1ccc(S(=O)(=O)Nc2nccs2)cc1" is 1.03

###

protocolText: chemical genetic growth profiling, strain panel (AID 1159580)
cond: S. cerevisiae deletion strains, growth OD, locus YPL256C, strain CLN2, active compounds read low
About 2,000 (36%) of roughly 5,500 compounds were called active. Another 18% or so got no clear call; they are omitted. The list shows a part of the results.
Please note: normalized growth exactly at 1 is not fulfilled. Only values below 1 get fulfilled.

Below, 6 compounds whose answers are already recorded.
compound=COc1cc(CC/C(C)=N/O)ccc1OCc1ccc(Cl)cc1Cl classname=fulfilled
compound=N[C@H](Cc1cc(I)c(Oc2ccc(O)c(I)c2)c(I)c1)C(=O)O classname="not fulfilled"
compound=S=C(NNc1ccccc1)Nc1cc(Cl)ccc1Cl classname=fulfilled
compound=Clc1ccc2c(c1)C(N1CCNCC1)=Nc1ccccc1O2 classname="not fulfilled"
compound=CN1CCN(C2=Nc3ccccc3Oc3ccc(Cl)cc32)CC1 classname="not fulfilled"
compound=N[C@@H](Cc1cc(I)c(Oc2cc(I)c(O)c(I)c2)c(I)c1)C(=O)O classname="not fulfilled"

Find out if reported normalized growth for "N[C@H](Cc1ccccc1)C(=O)O" is less than 1 not fulfilled

###

# Lookup of reported normalized growth keyed by entry
protocolText: chemical genetic growth profiling, strain panel (AID 1159580)
cond: S. cerevisiae deletion strains, growth OD, locus YJL092W, strain hpr5, active compounds read low
The whole screen tested about 5,500 compounds, of which about 2,000 (36%) were called active. Inconclusive results (about 18%) are left out. This is one part of the list.
API note: the answer field is a bare number with no unit suffix.

compound="CCCCCC1C(=O)CCC1CC(=O)OC (centres undefined)" endpointlabel="normalized growth" endpointresult=0.975
compound=Nc1ccncc1 endpointlabel="normalized growth" endpointresult=0.99
compound=Nc1cc(-c2ccncc2)c[nH]c1=O endpointlabel="normalized growth" endpointresult=0.923
compound="CCN(CC)C(C)CN1c2ccccc2Sc2ccccc21 (centres undefined)" endpointlabel="normalized growth" endpointresult=0.954
compound="COc1cc(S(C)=O)ccc1-c1nc2ncccc2[nH]1 (centres undefined)" endpointlabel="normalized growth" endpointresult=0.98

Value of normalized growth reported for the compound CCCCCC1C(=O)CCC1CC(=O)O (centres undefined) is 0.983

Value of normalized growth reported for the compound "C=C[C@H]1CN2CC[C@H]1C[C@@H]2[C@H](O)c1ccnc2ccccc12" is 0.99

Value of normalized growth reported for the compound "CCCC(CCC)C(=O)O" is 1.01

Value of normalized growth reported for the compound CC(CN1c2ccccc2Sc2ccccc21)N(C)C (centres undefined) is 0.949

Value of normalized growth reported for the compound NCC(CC(=O)O)c1ccc(Cl)cc1 (centres undefined) is 1.01

###

protocolText: chemical genetic growth profiling, strain panel (AID 1159580);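 note: tested at 20 µM; growth read once vehicle control cultures reached saturation at 30 °C; 1 = growth at the plate median or of vehicle wells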
cond: S. cerevisiae deletion strains, growth OD, locus YOR106W, strain vam3
The campaign covered roughly 5,500 compounds. About 2,000 (36%) were called active. Not shown: some 18% with an inconclusive outcome. Rule as the data show it: active = normalized growth mostly below about 0.91 (no sharp cut-off); inconclusive = no clear call, values can overlap the other calls; inactive = mostly above about 0.92. The list shows a part of the results.
I would appreciate it if you answered using one of these outcomes: 1 (yes) for active, 0 (no) for inactive

Below, 6 compounds whose answers are already recorded.
compound=O=c1cc(-c2ccccc2)oc2c(O)c(O)ccc12 classname="1 (yes)"
compound=c1ccc2nc(N3CCNCC3)ccc2c1 classname="0 (no)"
compound="CCCCS(=N)(=O)CCC(N)C(=O)O (stereo not given)" classname="0 (no)"
compound="CC(C)CCCC(C)C1CCC2C3CC[C@H]4CCCC[C@]4(C)C3CC[C@]12C (stereo not given in full)" classname="0 (no)"
compound="CC(=O)OCC(=O)[C@@]1(O)[C@H](OC(C)=O)CC2C3CCC4=CC(=O)C=C[C@]4(C)[C@@]3(F)[C@@H](O)C[C@@]21C (stereo not given in full)" classname="0 (no)"
compound="CC1(C)C(O)CC(O)C2(C)C1CC(O)C1(C)C2CCC2(C)C(c3ccoc3)OC(=O)C3OC321 (stereo not given)" classname="0 (no)"

Which outcome was entered for the compound C[C@]12C=CC(=O)C=C1CCC1C3C[C@@H](O)[C@](O)(C(=O)CO)[C@@]3(C)C[C@H](O)[C@@]12F (stereo not given in full) in this test? 0 (no)

Which outcome was entered for the compound "O=c1[nH]cnc2[nH]ncc12" in this test? 0 (no)

Which outcome was entered for the compound Cc1ncc([N+](=O)[O-])n1CC(C)O (stereo not given) in this test? 0 (no)

Which outcome was entered for the compound CN(CCC(N)CC(=O)N[C@H]1C=CC(n2ccc(N)nc2=O)O[C@@H]1C(=O)O)C(=N)N (stereo not given in full) in this test? 1 (yes)

Which outcome was entered for the compound "Cc1cc(=O)oc2c(O)c(O)ccc12" in this test? 0 (no)

Which outcome was entered for the compound "CN1CCN(C2=Nc3ccccc3Oc3ccc(Cl)cc32)CC1" in this test? 0 (no)

Which outcome was entered for the compound "O=c1cc(-c2ccc(O)cc2)oc2cc(O)cc(O)c12" in this test? 0 (no)

###

protocolText: chemical genetic growth profiling, strain panel (AID 1159580);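 note: tested at 20 µM; growth read once vehicle control cultures reached saturation at 30 °C; 1 = growth at the plate median or of vehicle wells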
cond: S. cerevisiae deletion strains, growth OD, locus YKL067W, strain YNK1, active compounds read low
Out of some 5,500 compounds screened, about 2,000 (36%) were called active. Roughly 18% stayed inconclusive and do not appear here. Some of the results follow.
# Lookup of reported normalized growth keyed by entry
API note: the answer field is a bare number with no unit suffix.

In the examples that follow, each entry is paired with its recorded normalized growth.
molecule=O=[N+]([O-])c1ccc(-c2csc(Nc3ccncc3)n2)cc1 endpointlabel="normalized growth" endpointresult=0.941
molecule=S=C(NNc1ccccc1)Nc1cc(Cl)ccc1Cl endpointlabel="normalized growth" endpointresult=0.976

Value of normalized growth reported for the molecule "CS(=O)(=O)/C(C#N)=C/c1ccccc1OCc1c(Cl)cccc1Cl" is 0.942

Value of normalized growth reported for the molecule COc1ccc(CC2CCC(=NOC(=O)c3c(Cl)cccc3Cl)CC2)cc1 (configuration not stated) is 0.959

Value of normalized growth reported for the molecule "COc1cc(CC/C(C)=N\O)ccc1OCc1ccc(Cl)c(Cl)c1" is 0.865

Value of normalized growth reported for the molecule "N#Cc1ccc(NC(=O)Nc2cccc3ccccc23)cc1" is 0.941

Value of normalized growth reported for the molecule "COc1ccc(OC)c(-c2ccn[nH]2)c1OCc1ccccc1" is 0.907

###

protocolText: chemical genetic growth profiling, strain panel (AID 1159580);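 note: tested at 20 µM; growth read once vehicle control cultures reached saturation at 30 °C; 1 = growth at the plate median or of vehicle wells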
cond: S. cerevisiae deletion strains, growth OD, locus YNL020C, strain ARK1
The whole screen tested about 5,500 compounds, of which about 2,000 (36%) were called active. Not shown: some 18% with an inconclusive outcome. No stated cut-off is given here; in the data, active means normalized growth mostly below about 0.91 (no sharp cut-off); inconclusive means no clear call, values can overlap the other calls; inactive means mostly above about 0.92. The list shows a part of the results.
I would appreciate it if you answered using one of these outcomes: 1.0 for active, 0.0 for inactive

Below, 5 compounds whose answers are already recorded.
mol=O=C(Nc1ccc(F)c(Cl)c1)c1ccccc1O classname=0.0
mol=Cc1ccc(S(=O)(=O)Nc2ccc(Oc3ccc(F)cc3)cc2)cc1 classname=0.0
mol=CS(=O)(=O)c1sc(C(=O)Sc2ccc(Cl)cc2)c2c1C=CCC2 classname=1.0
mol=N#Cc1ccc(NC(=O)Nc2cccc3ccccc23)cc1 classname=0.0
mol=S=C(NNc1ccccc1)Nc1cc(Cl)ccc1Cl classname=0.0

Continue with the next compound.
Which outcome was entered for the compound "Cc1nn(Cc2nnc(SCc3cccc(C(F)(F)F)c3)o2)c(C)c1Br" in this test? 0.0
